- experimental_target: Tyrosyl-tRNA synthetase, putative (Trypanosoma cruzi (strain CL Brener)) (UniProt Q4DSP6)
- Sequence (Q4DSP6 as listed by the source): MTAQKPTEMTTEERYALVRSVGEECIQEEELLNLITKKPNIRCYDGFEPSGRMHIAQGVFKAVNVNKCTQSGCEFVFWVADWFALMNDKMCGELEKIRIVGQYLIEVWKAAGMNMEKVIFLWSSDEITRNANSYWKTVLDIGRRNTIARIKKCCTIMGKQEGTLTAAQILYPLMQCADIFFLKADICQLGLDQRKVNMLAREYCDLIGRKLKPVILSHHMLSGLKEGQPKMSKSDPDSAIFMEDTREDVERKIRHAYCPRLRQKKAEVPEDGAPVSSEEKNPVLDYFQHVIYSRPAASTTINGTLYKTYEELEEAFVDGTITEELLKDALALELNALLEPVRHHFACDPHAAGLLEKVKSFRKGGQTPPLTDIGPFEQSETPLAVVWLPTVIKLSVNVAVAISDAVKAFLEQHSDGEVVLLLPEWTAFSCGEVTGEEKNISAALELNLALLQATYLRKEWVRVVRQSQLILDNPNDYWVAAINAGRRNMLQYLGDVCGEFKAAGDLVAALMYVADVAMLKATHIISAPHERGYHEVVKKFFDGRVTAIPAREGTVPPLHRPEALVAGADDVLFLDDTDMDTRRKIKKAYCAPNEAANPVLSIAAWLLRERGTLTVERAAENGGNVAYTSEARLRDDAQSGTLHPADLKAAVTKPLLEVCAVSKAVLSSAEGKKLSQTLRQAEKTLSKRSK
- assay_summary: Trypanosoma cruzi tyrosyl tRNA synthetase (TcYRS) SOP
- Format: functional
- Set-up: scale not given: direction of the effect not stated beside the values
- experimental_context: 30 µM
Some compounds, each annotated with its measured Percent Effect.
quantity_measured: Percent Effect (%)

compound=Cn1ccc(CN2CCC(c3ccccc3)CC2)cc1=O quantity_measured="Percent Effect" units_label=% recorded_value=19.5
compound="CC(C)c1nc(N2CC(N3CCCCC3C)C2)c2cnn(C)c2n1 (centres undefined)" quantity_measured="Percent Effect" units_label=% recorded_value=8.64
compound="CC(C)CC(=O)N1CCN(C(=O)N(C)C)CC2(CC(=O)N(C)C2)C1 (centres undefined)" quantity_measured="Percent Effect" units_label=% recorded_value=-3.66
compound=CNC(=O)CSc1cnn(CC(=O)Nc2cccc(Cl)c2C)c(=O)c1Cl quantity_measured="Percent Effect" units_label=% recorded_value=12.5
compound="Cc1ccc(CC2CCCN2CC(=O)NCc2cccnc2)cc1 (centres undefined)" quantity_measured="Percent Effect" units_label=% recorded_value=13
compound="COc1c(C)cnc(CN2CCCCC2Cn2nc(C)nc2C)c1C (centres undefined)" quantity_measured="Percent Effect" units_label=% recorded_value=26.6
compound="CCS(=O)(=O)N1CCOC2(CCCN(c3ccc(C)nn3)C2)C1 (centres undefined)" quantity_measured="Percent Effect" units_label=% recorded_value=-2.5
compound="CCCOc1ccc(CNC(=O)N2CCC(C(N)=O)C2)cc1 (centres undefined)" quantity_measured="Percent Effect" units_label=% recorded_value=13.9
compound="Cc1ccccc1C1CCCN1C(=O)CN1CC2(CCNCC2)OC1=O (centres undefined)" quantity_measured="Percent Effect" units_label=% recorded_value=9.76
compound=O=C(c1ccc[nH]1)N1C[C@H]2CN(Cc3cccc(F)c3)C(=O)[C@H]2C1 quantity_measured="Percent Effect" units_label=% recorded_value=7.69
compound=Cc1cc(S(=O)(=O)N2CCCc3ccc(F)cc32)sc1C(=O)O quantity_measured="Percent Effect" units_label=% recorded_value=-33.3
compound="Cc1cnn(CC2CCCCN2CCC(=O)Nc2cc(C)on2)c1 (centres undefined)" quantity_measured="Percent Effect" units_label=% recorded_value=12.7
compound="COc1ncccc1NC(=O)NCC(O)c1ccc(F)cc1F (centres undefined)" quantity_measured="Percent Effect" units_label=% recorded_value=5.06
compound="Cc1cnc(CN2CCOC(Cn3nc(C)nc3C)C2)cn1 (centres undefined)" quantity_measured="Percent Effect" units_label=% recorded_value=24.1
compound="CCC(CO)N(Cc1ccccn1)C(=O)c1ccc2c(c1)CCO2 (centres undefined)" quantity_measured="Percent Effect" units_label=% recorded_value=16.1
compound=CN1CCN(Cc2ccccc2CNC(=O)c2ccc(Br)cc2F)CC1 quantity_measured="Percent Effect" units_label=% recorded_value=11.1
compound="CC(Cn1cncn1)NCc1nncn1C1CCCCC1 (centres undefined)" quantity_measured="Percent Effect" units_label=% recorded_value=15.4
compound="O=C1C(NS(=O)(=O)c2cc(F)cc(F)c2)CCN1Cc1ccccc1 (centres undefined)" quantity_measured="Percent Effect" units_label=% recorded_value=1.27
compound="CC(O)CN1CCN(C(=O)c2cc3ccccc3c(=O)[nH]2)CC1 (centres undefined)" quantity_measured="Percent Effect" units_label=% recorded_value=2.6
compound=Cc1cc(-c2nnn(CCC(N)=O)n2)ccc1F quantity_measured="Percent Effect" units_label=% recorded_value=13.6
compound=COC(=O)N1CCc2ccc(NC(=O)c3cn(C)nn3)cc2C1 quantity_measured="Percent Effect" units_label=% recorded_value=8.97
compound=CCN(CC)c1ccc(NS(=O)(=O)c2cnn(C)c2)cn1 quantity_measured="Percent Effect" units_label=% recorded_value=13.6
compound=O=C(NCC(=O)N1CCCCC1)c1ccc(Cl)cc1I quantity_measured="Percent Effect" units_label=% recorded_value=12.2
compound="O=C(CC1CN(Cc2ccccc2)CCO1)NC1CCCC1 (centres undefined)" quantity_measured="Percent Effect" units_label=% recorded_value=23.2
